The origin of these recorded values is PubChem BioAssay AID1963983.

Items are presented alongside their recorded viability, T/C.
tested on: 186277-243-T-J2-PDC multi-cell spheroid viability; test: Anticancer human tumor 186277-243-T-J2-PDC patient-derived colon adenocarcinoma cell line growth inhibition [PI3K]; conditions: second compound 0.1 µM; first compound 0.001 µM; stronger effect = lower value
The reply should be a number in %, with the unit left off.

Known viability, T/C results, listed for orientation:
CC(C)n1nc(-c2ccc3oc(N)nc3c2)c2c(N)ncnc21 + CC(Nc1ccc2c(c1)OCCn1cc(N3C(=O)OCC3C(F)F)nc1-2)C(N)=O
94.2
CC(C)n1nc(-c2ccc3oc(N)nc3c2)c2c(N)ncnc21 + Cc1nc(NC(=O)N2CCCC2C(N)=O)sc1-c1ccnc(C(C)(C)C(F)(F)F)c1
107

Please look at the following compound next.
Q: Query viability, T/C on 186277-243-T-J2-PDC multi-cell spheroid viability for Cn1ncnc1[C@H]1c2n[nH]c(=O)c3cc(F)cc(c23)N[C@@H]1c1ccc(F)cc1 + CC(Nc1ncnc2nc[nH]c12)c1cc2cccc(Cl)c2c(=O)n1-c1ccccc1
Result: 111

---

Items are presented alongside their recorded viability, T/C.
test system: 186277-243-T-J2-PDC multi-cell spheroid viability; test: Anticancer human tumor 186277-243-T-J2-PDC cell line growth inhibition [PI3K]; settings: second compound 0.0316 µM; first compound 0.00316 µM; stronger effect = lower value;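 note: spheroids exposed to compounds for seven days before viability reading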;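 for viability, T/C: 100% = DMSO vehicle control viability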
The reply should be a number in %, with the unit left off.

Cn1ncnc1[C@H]1c2n[nH]c(=O)c3cc(F)cc(c23)N[C@@H]1c1ccc(F)cc1 + CC(Nc1ncnc2nc[nH]c12)c1cc2cccc(Cl)c2c(=O)n1-c1ccccc1
86.8
CC(C)n1nc(-c2ccc3oc(N)nc3c2)c2c(N)ncnc21 + COc1c(OCCCN2CCOCC2)ccc2c3n(c(=NC(=O)c4cnc(N)nc4)nc12)CCN3
59.5
Cn1ncnc1[C@H]1c2n[nH]c(=O)c3cc(F)cc(c23)N[C@@H]1c1ccc(F)cc1 + COc1c(OCCCN2CCOCC2)ccc2c3n(c(=NC(=O)c4cnc(N)nc4)nc12)CCN3
58.9
CC(=O)c1c(C)c2cnc(Nc3ccc(N4CCNCC4)cn3)nc2n(C2CCCC2)c1=O + CC(Nc1ccc2c(c1)OCCn1cc(N3C(=O)OCC3C(F)F)nc1-2)C(N)=O
91.7

Q: So what's the measured viability, T/C for this one? CCN1CCN(Cc2ccc(Nc3ncc(F)c(-c4cc(F)c5nc(C)n(C(C)C)c5c4)n3)nc2)CC1 + Cc1nc(NC(=O)N2CCCC2C(N)=O)sc1-c1ccnc(C(C)(C)C(F)(F)F)c1
Result: 96.7

Q: So what's the measured viability, T/C for this one? Cn1ncnc1[C@H]1c2n[nH]c(=O)c3cc(F)cc(c23)N[C@@H]1c1ccc(F)cc1 + Cc1nc(NC(=O)N2CCCC2C(N)=O)sc1-c1ccnc(C(C)(C)C(F)(F)F)c1
Result: 94.5

Q: So what's the measured viability, T/C for this one? CCN1CCN(Cc2ccc(Nc3ncc(F)c(-c4cc(F)c5nc(C)n(C(C)C)c5c4)n3)nc2)CC1 + CC(Nc1ccc2c(c1)OCCn1cc(N3C(=O)OCC3C(F)F)nc1-2)C(N)=O
Result: 98.9

Q: So what's the measured viability, T/C for this one? CCN1CCN(Cc2ccc(Nc3ncc(F)c(-c4cc(F)c5nc(C)n(C(C)C)c5c4)n3)nc2)CC1 + CC(Nc1ncnc2nc[nH]c12)c1cc2cccc(Cl)c2c(=O)n1-c1ccccc1
Result: 94.6

Q: So what's the measured viability, T/C for this one? CC(=O)c1c(C)c2cnc(Nc3ccc(N4CCNCC4)cn3)nc2n(C2CCCC2)c1=O + Cc1nc(NC(=O)N2CCCC2C(N)=O)sc1-c1ccnc(C(C)(C)C(F)(F)F)c1
Result: 96

Q: So what's the measured viability, T/C for this one? Cn1ncnc1[C@H]1c2n[nH]c(=O)c3cc(F)cc(c23)N[C@@H]1c1ccc(F)cc1 + CC(Nc1ccc2c(c1)OCCn1cc(N3C(=O)OCC3C(F)F)nc1-2)C(N)=O
Result: 101

Q: So what's the measured viability, T/C for this one? CC(=O)c1c(C)c2cnc(Nc3ccc(N4CCNCC4)cn3)nc2n(C2CCCC2)c1=O + CC(Nc1ncnc2nc[nH]c12)c1cc2cccc(Cl)c2c(=O)n1-c1ccccc1
Result: 114

---

test system: 186277-243-T-J2-PDC multi-cell spheroid viability; experiment: Anticancer human tumor 186277-243-T-J2-PDC cell line growth inhibition [PI3K]; conditions: curve of first compound; second compound 0.01 µM;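 note: spheroids exposed to compounds for seven days before viability reading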
Observation type: pIC50
On this scale, pIC50 is minus log10 of a concentration expressed in M (mol/L).

Known pIC50 results, listed for orientation:
Cn1cnc2c(F)c(Nc3ccc(Br)cc3Cl)c(C(=O)NOCCO)cc21 + CC(Nc1ccc2c(c1)OCCn1cc(N3C(=O)OCC3C(F)F)nc1-2)C(N)=O
7.11
Cn1ncc(Cl)c1-c1cc(C(=O)NC(CN)Cc2cccc(F)c2)sc1Cl (stereo unspecified) + CC(Nc1ccc2c(c1)OCCn1cc(N3C(=O)OCC3C(F)F)nc1-2)C(N)=O
6.37
Cn1cnc2c(F)c(Nc3ccc(Br)cc3Cl)c(C(=O)NOCCO)cc21 + COc1c(OCCCN2CCOCC2)ccc2c3n(c(=NC(=O)c4cnc(N)nc4)nc12)CCN3
7.52
CC(C)NCC(C(=O)N1CCN(c2ncnc3c2C(C)CC3O)CC1)c1ccc(Cl)cc1 (stereo unspecified) + CC(Nc1ccc2c(c1)OCCn1cc(N3C(=O)OCC3C(F)F)nc1-2)C(N)=O
6.11
CC1(C)CCC(Nc2ncc(C(F)(F)F)c(-c3c[nH]c4c(P(C)(C)=O)c(C#N)ccc34)n2)CN1 (stereo unspecified) + CC(Nc1ccc2c(c1)OCCn1cc(N3C(=O)OCC3C(F)F)nc1-2)C(N)=O
5.41

Q: So what's the measured pIC50 for this one? Cn1nccc1Nc1nccc(-c2ccn(C(CO)c3ccc(Cl)c(F)c3)c(=O)c2)n1 (stereo unspecified) + COc1c(OCCCN2CCOCC2)ccc2c3n(c(=NC(=O)c4cnc(N)nc4)nc12)CCN3
Result: 6.30

Q: So what's the measured pIC50 for this one? CC1(C)CCC(CN2CCN(c3ccc(C(=O)NS(=O)(=O)c4ccc(NCC5CCOCC5)c([N+](=O)[O-])c4)c(Oc4cnc5[nH]ccc5c4)c3)CC2)=C(c2ccc(Cl)cc2)C1 + CC(Nc1ccc2c(c1)OCCn1cc(N3C(=O)OCC3C(F)F)nc1-2)C(N)=O
Result: 5.34

Q: So what's the measured pIC50 for this one? C[C@@H](NC(=O)c1ncnc(N)c1Cl)c1ncc(C(=O)Nc2cc(C(F)(F)F)c(Cl)cn2)s1 + COc1c(OCCCN2CCOCC2)ccc2c3n(c(=NC(=O)c4cnc(N)nc4)nc12)CCN3
Result: 5.10

Q: So what's the measured pIC50 for this one? CC1(C)CCC(Nc2ncc(C(F)(F)F)c(-c3c[nH]c4c(P(C)(C)=O)c(C#N)ccc34)n2)CN1 (stereo unspecified) + COc1c(OCCCN2CCOCC2)ccc2c3n(c(=NC(=O)c4cnc(N)nc4)nc12)CCN3
Result: 5.91

Q: So what's the measured pIC50 for this one? CCCS(=O)(=O)Nc1ccc(F)c(C(=O)c2c[nH]c3ncc(-c4ccc(Cl)cc4)cc23)c1F + COc1c(OCCCN2CCOCC2)ccc2c3n(c(=NC(=O)c4cnc(N)nc4)nc12)CCN3
Result: 5.25

Q: So what's the measured pIC50 for this one? CCCS(=O)(=O)Nc1ccc(F)c(C(=O)c2c[nH]c3ncc(-c4ccc(Cl)cc4)cc23)c1F + CC(Nc1ccc2c(c1)OCCn1cc(N3C(=O)OCC3C(F)F)nc1-2)C(N)=O
Result: 5.27

Q: So what's the measured pIC50 for this one? CC(C)n1nc(-c2ccc3oc(N)nc3c2)c2c(N)ncnc21 + COc1c(OCCCN2CCOCC2)ccc2c3n(c(=NC(=O)c4cnc(N)nc4)nc12)CCN3
Result: 7.37

---

tested on: 186277-243-T-J2-PDC multi-cell spheroid viability; assay: Anticancer human tumor 186277-243-T-J2-PDC cell line growth inhibition [PI3K]; details: second compound 0.0316 µM; first compound 0.316 µM; stronger effect = lower value;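 note: spheroids exposed to compounds for seven days before viability reading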;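 for viability, T/C: 100% = DMSO vehicle control viability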
Items are presented alongside their recorded viability, T/C.
The reply should be a number in %, with the unit left off.

Q: So what's the measured viability, T/C for this one? Cn1nccc1Nc1nccc(-c2ccn(C(CO)c3ccc(Cl)c(F)c3)c(=O)c2)n1 (stereo unspecified) + Cc1nc(NC(=O)N2CCCC2C(N)=O)sc1-c1ccnc(C(C)(C)C(F)(F)F)c1
Result: 117

Q: So what's the measured viability, T/C for this one? Cn1ncc(Cl)c1-c1cc(C(=O)NC(CN)Cc2cccc(F)c2)sc1Cl (stereo unspecified) + CC(Nc1ncnc2nc[nH]c12)c1cc2cccc(Cl)c2c(=O)n1-c1ccccc1
Result: 55.5

Q: So what's the measured viability, T/C for this one? C=CC(=O)N1CCN(c2nc(=O)n(-c3c(C)ccnc3C(C)C)c3nc(-c4c(O)cccc4F)c(F)cc23)C(C)C1 (stereo unspecified) + COc1c(OCCCN2CCOCC2)ccc2c3n(c(=NC(=O)c4cnc(N)nc4)nc12)CCN3
Result: 57.5

Q: So what's the measured viability, T/C for this one? CNC(=O)c1ccc(N2C(=S)N(c3ccc(C#N)c(C(F)(F)F)c3)C(=O)C2(C)C)cc1F + CC(Nc1ncnc2nc[nH]c12)c1cc2cccc(Cl)c2c(=O)n1-c1ccccc1
Result: 90.9

Q: So what's the measured viability, T/C for this one? C#Cc1c(F)ccc2cc(O)cc(-c3ncc4c(N5CC6CCC(C5)N6)nc(OCC56CCCN5CC(F)C6)nc4c3F)c12 (stereo unspecified) + CC(Nc1ncnc2nc[nH]c12)c1cc2cccc(Cl)c2c(=O)n1-c1ccccc1
Result: 19.4

Q: So what's the measured viability, T/C for this one? C#Cc1c(F)ccc2cc(O)cc(-c3ncc4c(N5CC6CCC(C5)N6)nc(OCC56CCCN5CC(F)C6)nc4c3F)c12 (stereo unspecified) + CC(Nc1ccc2c(c1)OCCn1cc(N3C(=O)OCC3C(F)F)nc1-2)C(N)=O
Result: 13.1

Q: So what's the measured viability, T/C for this one? CC(C)NCC(C(=O)N1CCN(c2ncnc3c2C(C)CC3O)CC1)c1ccc(Cl)cc1 (stereo unspecified) + CC(Nc1ccc2c(c1)OCCn1cc(N3C(=O)OCC3C(F)F)nc1-2)C(N)=O
Result: 71.4

Q: So what's the measured viability, T/C for this one? Cn1ncc(Cl)c1-c1cc(C(=O)NC(CN)Cc2cccc(F)c2)sc1Cl (stereo unspecified) + COc1c(OCCCN2CCOCC2)ccc2c3n(c(=NC(=O)c4cnc(N)nc4)nc12)CCN3
Result: 23.5

Q: So what's the measured viability, T/C for this one? CC1(C)CCC(CN2CCN(c3ccc(C(=O)NS(=O)(=O)c4ccc(NCC5CCOCC5)c([N+](=O)[O-])c4)c(Oc4cnc5[nH]ccc5c4)c3)CC2)=C(c2ccc(Cl)cc2)C1 + COc1c(OCCCN2CCOCC2)ccc2c3n(c(=NC(=O)c4cnc(N)nc4)nc12)CCN3
Result: 80.5

Q: So what's the measured viability, T/C for this one? Cn1nccc1Nc1nccc(-c2ccn(C(CO)c3ccc(Cl)c(F)c3)c(=O)c2)n1 (stereo unspecified) + COc1c(OCCCN2CCOCC2)ccc2c3n(c(=NC(=O)c4cnc(N)nc4)nc12)CCN3
Result: 18.4

Q: So what's the measured viability, T/C for this one? CC1(C)CCC(Nc2ncc(C(F)(F)F)c(-c3c[nH]c4c(P(C)(C)=O)c(C#N)ccc34)n2)CN1 (stereo unspecified) + COc1c(OCCCN2CCOCC2)ccc2c3n(c(=NC(=O)c4cnc(N)nc4)nc12)CCN3
Result: 26.8
